Test: Pharmacokinetic study in SAD cohorts
Assay type: in vivo, human
Details: both sexes, human, plasma and urine, po, 500 mg, single oral Compound 2 500 mg, fasting
readout.kind: CL renal
Returns: string containing the number followed by the unit.

input: Recorded CL renal for CNc1nc(N)nc2c1ncn2[C@@H]1O[C@H](CO[P@](=O)(N[C@@H](C)C(=O)OC(C)C)Oc2ccccc2)[C@@H](O)[C@@]1(C)F [Compound 1] , please?
output: 182 mL/min

---

Tested on: granulocyte macrophage (GM) human bone marrow progenitor cells
Experiment: Bone marrow progenitor cell assay, granulocyte macrophage (GM)
Details: GM cell assay, 14 days, colonies counted
readout.kind: CC50 (nM)
Give bare numbers, in nM.

input: I would be grateful if you could share the reported CC50 for Cc1cn([C@H]2C[C@H](N=[N+]=[N-])[C@@H](CO)O2)c(=O)[nH]c1=O [AZT, reference compound] .
output: 2000

---

Test: Bone marrow progenitor cell assay, granulocyte macrophage (GM)
Details: human
readout.kind: CC50 at 14 days

input: Please give the measured CC50 at 14 days for this compound: CNc1nc(N)nc2c1ncn2[C@@H]1O[C@H](CO[P@](=O)(N[C@@H](C)C(=O)OC(C)C)Oc2ccccc2)[C@@H](O)[C@@]1(C)F
output: > 100 µM

---

System: flaviviruses
Assay: organism not typed
Details: 144 h, read-out: concentration to achieve 50% inhibition (EC50) of the virus-induced cytopathic effect (CPE), range over 11 strains of 7 flaviviruses in 3 cell types, 3- to 6-day incubation
readout.kind: EC50

input: // EC50 lookup, key: CNc1nc(N)nc2c1ncn2[C@@H]1O[C@H](CO[P@](=O)(N[C@@H](C)C(=O)OC(C)C)Oc2ccccc2)[C@@H](O)[C@@]1(C)F
output: 190 to 1410 nM

---

Assay: clinical
Details: both, human, in vivo, 750 mg, AUCtau, steady-state, human plasma, Compound 2 750 mg BID; mean±SD
readout.kind: AUC (ng·h/mL)
One number for each entry, in ng·h/mL.

input: // lookup AUC for CNc1nc(N)nc2c1ncn2[C@@H]1O[C@H](CO[P@](=O)(N[C@@H](C)C(=O)OC(C)C)Oc2ccccc2)[C@@H](O)[C@@]1(C)F
output: 2610

---

Biological target: UniProt P14340
Sequence (P14340 2492-2787 limits assumed): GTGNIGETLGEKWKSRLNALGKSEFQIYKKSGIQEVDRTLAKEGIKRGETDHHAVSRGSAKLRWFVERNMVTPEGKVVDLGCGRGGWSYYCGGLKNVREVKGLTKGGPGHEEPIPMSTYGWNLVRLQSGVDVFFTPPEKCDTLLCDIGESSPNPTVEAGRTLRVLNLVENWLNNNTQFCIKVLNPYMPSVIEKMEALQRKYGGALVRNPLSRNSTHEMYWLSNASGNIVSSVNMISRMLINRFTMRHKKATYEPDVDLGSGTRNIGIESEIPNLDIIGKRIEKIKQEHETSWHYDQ
readout.kind: IC50 (µM)
Answers are plain numbers, in µM.

input: Param item = C[C@@]1(F)[C@H](O)[C@@H](COP(=O)(O)OP(=O)(O)OP(=O)(O)O)O[C@H]1n1cnc2c(=O)[nH]c(N)nc21 ; retrieve measured IC50.
output: 29.6

---

Assay: Pharmacokinetic study in SAD cohorts
Format: in vivo, human
Details: both sexes, human, plasma and urine, po, 500 mg, single oral Compound 2 500 mg, fed
Method: Pharmacokinetic measurements for FIGS. 11, 12, 13, 14, and 15 were analyzed using LC-MS/MS according to the protocol described herein. Plasma samples were prepared for MS analysis by adding internal standards and extracting with 20 volumes chilled ACN. […] Data analysis of the pharmacokinetic data generated according to Example 21 and presented in FIGS. 11, 12, 13, 14, and 15 was analyzed according to the procedure described herein. […]
readout.kind: CL renal
The answer should read as a number with its unit following.

input: Recorded CL renal for CNc1nc(N)nc2c1ncn2[C@@H]1O[C@H](CO[P@](=O)(N[C@@H](C)C(=O)OC(C)C)Oc2ccccc2)[C@@H](O)[C@@]1(C)F , please?
output: 110 mL/min

---

Test system: Human PBMC
Conditions: Table 1A, human PBMC without virus; highest concentration tested
readout.kind: CC50

input: Entry CNc1nc(N)nc2c1ncn2[C@@H]1O[C@H](CO[P@](=O)(N[C@@H](C)C(=O)OC(C)C)Oc2ccccc2)[C@@H](O)[C@@]1(C)F : reported CC50 = ?
output: > 85 µM

---

Tested on: erythroid (E) human bone marrow progenitor cells
Experiment: Bone marrow progenitor cell assay, erythroid (E)
Conditions: E cell assay, 14 days, colonies counted
readout.kind: CC50

input: Given the molecule Cc1cn([C@H]2C[C@H](N=[N+]=[N-])[C@@H](CO)O2)c(=O)[nH]c1=O [AZT, reference compound] , what is its reported CC50?
output: 3000 nM

---

System: Dengue-2 (DENV-2)
Assay: Neutral red assay of virus-induced CPE, DENV-2
Format: cell-based
Details: DENV2, DENV-2 New Guinea C (NGC), Huh-7, neutral red (NR) assay
readout.kind: EC50 (nM)
Numbers only, in nM.

input: Lookup: EC50 / Dengue-2 (DENV-2) / CNc1nc(N)nc2c1ncn2[C@@H]1O[C@H](CO[P@](=O)(N[C@@H](C)C(=O)OC(C)C)Oc2ccccc2)[C@@H](O)[C@@]1(C)F
output: 480

---

Assay: Pharmacokinetic study in SAD cohorts
Assay type: in vivo, human
Conditions: both sexes, human, plasma, po, 250 mg, human plasma, single oral Compound 2 250 mg, fasting; read-out: Tmax
readout.kind: Tmax (min)
Give bare numbers, in min.

input: Which measured Tmax value corresponds to CNc1nc(N)nc2c1ncn2[C@@H]1O[C@H](CO[P@](=O)(N[C@@H](C)C(=O)OC(C)C)Oc2ccccc2)[C@@H](O)[C@@]1(C)F ?
output: 30

---

Conditions: steady-state, human plasma, Compound 2 750 mg TID; median (minimum-maximum)
readout.kind: Tmax

CNc1nc(N)nc2c1ncn2[C@@H]1O[C@H](CO)[C@@H](O)[C@@]1(C)F [Compound 7] = 1.5 (1.0-2.0) h
C[C@@]1(F)[C@H](O)[C@@H](CO)O[C@H]1n1cnc2c(=O)[nH]c(N)nc21 [Compound 6, 2′-fluoro-2′-C-methylguanosine] = 3.5 (3.0-6.0) h
CNc1nc(N)nc2c1ncn2[C@@H]1O[C@H](CO[P@](=O)(N[C@@H](C)C(=O)OC(C)C)Oc2ccccc2)[C@@H](O)[C@@]1(C)F [Compound 1] = 0.5 (0.5-1.0) h

// next entry
input: Consider the molecule CNc1nc(N)nc2c1ncn2C1OC(COP(=O)(O)NC(C)C(=O)O)C(O)C1(C)F (stereo not shown) [Compound 3] and give its measured Tmax.
output: 1.5 (0.8-2.0) h

---

Please provide measured Cmax for the entries that follow.
Experiment: Plasma PK after single oral dose of AT-752, monkeys
Format: in vivo, cynomolgus monkeys
Conditions: Monkey, single oral AT-752 300 mg/kg, plasma
Numbers only, in nM.

Recorded results for 2 molecules are shown here.
C[C@@]1(F)[C@H](O)[C@@H](CO)O[C@H]1n1cnc2c(=O)[nH]c(N)nc21 = 800
CNc1nc(N)nc2c1ncn2C1OC(COP(=O)(O)NC(C)C(=O)O)C(O)C1(C)F (stereo not drawn) = 2000

input: // lookup Cmax for CNc1nc(N)nc2c1ncn2[C@@H]1O[C@H](CO[P@](=O)(N[C@@H](C)C(=O)OC(C)C)Oc2ccccc2)[C@@H](O)[C@@]1(C)F
output: 3700

---

Test: Pharmacokinetic study in SAD cohorts
Format: in vivo, human
Settings: both sexes, human, plasma, po, 1000 mg, human plasma, single oral Compound 2 1000 mg, fasting
readout.kind: half-life (min)
One number for each entry, in min.

input: What does the data say about its half-life? Entry: CNc1nc(N)nc2c1ncn2[C@@H]1O[C@H](CO[P@](=O)(N[C@@H](C)C(=O)OC(C)C)Oc2ccccc2)[C@@H](O)[C@@]1(C)F [Compound 1]
output: 30

---

System: Dengue serotype 4
Test: In vitro antiviral potency, summary over strains, Dengue serotype 4
Format: cell-based
Conditions: Dengue virus
pEC50: −log10 of the molar value.
readout.kind: pEC50

input: May I ask what pEC50 has been recorded for CNc1nc(N)nc2c1ncn2[C@@H]1O[C@H](CO[P@](=O)(N[C@@H](C)C(=O)OC(C)C)Oc2ccccc2)[C@@H](O)[C@@]1(C)F ?
output: > 5.92
